Values from paper PMC11472313

Assay: microsomal metabolic stability, mouse
Format: in vitro ADME
Settings: mouse, liver microsomes, read-out: microsomal metabolic stability t1/2
outcome-measure: half-life

# annotated cases, reported half-life shown
[
  {
    "molecule": "O=C(NC[C@H](OCc1ccc(C#Cc2ccc(CN3CCOCC3)cc2)cc1)C(=O)NO)c1c[nH]c2ccccc12 [(S)-13h]",
    "half-life": "> 60 min"
  },
  {
    "molecule": "O=C(NC[C@H](OCc1ccc(C#Cc2ccc(CN3CCOCC3)cc2)cc1)C(=O)NO)c1cc[nH]n1 [(S)-13l]",
    "half-life": "~53 min"
  }
]

Now examine the next entry.
# input molecule: O=C(NC[C@H](OCc1ccc(C#Cc2ccc(CN3CCOCC3)cc2)cc1)C(=O)NO)c1ccc2[nH]ccc2c1 [(S)-13j] ; wanted: its half-life
> 60 min
